molecular target: Protein arginine N-methyltransferase 1 (Homo sapiens, UniProt Q99873)
Sequence (Q99873 whole entry): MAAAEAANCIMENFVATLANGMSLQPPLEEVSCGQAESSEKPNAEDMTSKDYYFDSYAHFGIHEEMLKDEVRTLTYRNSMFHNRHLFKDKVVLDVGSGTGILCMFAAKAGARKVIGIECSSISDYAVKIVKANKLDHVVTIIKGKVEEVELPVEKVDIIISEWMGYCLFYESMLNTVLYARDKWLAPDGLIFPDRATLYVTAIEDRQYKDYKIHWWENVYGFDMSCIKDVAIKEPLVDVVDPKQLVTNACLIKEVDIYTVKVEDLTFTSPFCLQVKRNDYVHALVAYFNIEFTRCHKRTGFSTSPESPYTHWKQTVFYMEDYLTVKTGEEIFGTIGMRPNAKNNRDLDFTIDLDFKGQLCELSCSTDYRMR
measurementName: IC50 (µM)
Give the quantity in µM, number only.

Supply measured IC50 of N=C(NCCCCC(N)C(N)=O)NCCCSC[C@H]1O[C@@H](n2cnc3c(N)ncnc32)[C@H](O)[C@@H]1O (stereo partly specified) in your reply.
3

----------
target: Protein arginine N-methyltransferase 1 (Homo sapiens, UniProt Q99873); experiment: Inhibition of PRMT1 (unknown origin) using Histone H4 as substrate incubated for 1 hr by fluorescence based analysis
measurementName: pIC50
The value called pIC50 is obtained by taking minus log10 of the concentration in mol/L.

Recall and state the measured pIC50 for N=C(NCCCCC(N)C(N)=O)NCCCSC[C@H]1O[C@@H](n2cnc3c(N)ncnc32)[C@H](O)[C@@H]1O (stereo partly specified) .
5.52
